Biological target: hPPARα (Homo sapiens)
Construct: corresponding to the DEF domains (structural elements of the promoter of the PPARs: D=hinge, EF=ligand fixation domain and AF2 fixation site); expressed in transfected cells; host or cells: COS-7 (monkey kidney fibroblasts)
Sequence (Q07869 239-466 limits assumed): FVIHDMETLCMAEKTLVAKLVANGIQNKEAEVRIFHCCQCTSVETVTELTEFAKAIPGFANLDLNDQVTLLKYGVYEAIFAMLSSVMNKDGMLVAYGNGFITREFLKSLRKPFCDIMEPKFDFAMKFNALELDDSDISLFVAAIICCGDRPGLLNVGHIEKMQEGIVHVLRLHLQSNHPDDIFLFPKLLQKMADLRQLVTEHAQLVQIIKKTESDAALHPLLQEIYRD
Assay: Gal4-hPPARα chimera transactivation (luciferase) in COS-7 cells
Format: cell-based
Conditions: relative to maximum activation obtained with fenofibric acid; COS-7 cells, Gal4-hPPARα, 24 hours; read-out: PPARα TOP % (maximum activation)
Definition: the class of an entry is the range in zone 1: < 50%; zone 2: ≥ 50% and < 70%; zone 3: ≥ 70% that contains its Emax.

Qu. In plain terms, what class is COc1ncc(-c2cccc(C(F)(F)F)c2)cc1CNc1ccc(CCC(=O)O)cc1 ?
Ans. zone 2

Qu. In plain terms, what class is COc1ncc(-c2ccc(C(F)(F)F)cc2)cc1CNc1ccc(CCC(=O)O)cc1 ?
Ans. zone 2

Qu. In plain terms, what class is COc1nc(-c2ccccc2)c(-c2ccccc2)cc1CNc1ccc(SCC(=O)O)cc1 ?
Ans. zone 2

Qu. In plain terms, what class is COc1ncc(-c2ccccc2)cc1CNc1ccc(SCC(=O)O)cc1 ?
Ans. zone 2

Qu. In plain terms, what class is COc1nc(-c2ccccc2)ccc1CNc1ccc(C(C)CC(=O)O)cc1 (stereo not shown) ?
Ans. zone 1

Qu. In plain terms, what class is CC(C)Oc1nc(-c2ccccc2)ccc1CNc1ccc(CCC(=O)O)cc1 ?
Ans. zone 1

Qu. In plain terms, what class is COc1nc(-c2ccc(C(F)(F)F)cc2)ccc1CNc1ccc(SC(C)(C)C(=O)O)cc1 ?
Ans. zone 3

Qu. In plain terms, what class is COc1nc(-c2ccc(C(F)(F)F)cc2)ccc1CNc1ccc(CCC(=O)O)cc1 ?
Ans. zone 3

Qu. In plain terms, what class is COc1nc(-c2ccccc2)ccc1CNc1ccc(SC(F)(F)C(=O)O)cc1 ?
Ans. zone 3

Qu. In plain terms, what class is COc1nc(-c2cccc(C(F)(F)F)c2)ccc1CNc1ccc(CCC(=O)O)cc1 ?
Ans. zone 2

Qu. In plain terms, what class is CCCCCCOc1nc(-c2ccccc2)ccc1COc1ccc(OC(C)(C)C(=O)O)cc1 ?
Ans. zone 2

Qu. In plain terms, what class is CC(Oc1ccc(NCc2ccc(-c3ccccc3)nc2OC(C)(C)C)cc1)C(=O)O (stereo not shown) ?
Ans. zone 2

Qu. In plain terms, what class is COc1nc(-c2ccccc2)ccc1CNc1ccc(OC(C)C(=O)O)cc1 (stereo not shown) ?
Ans. zone 2

Qu. In plain terms, what class is COc1nc(-c2ccccc2)ccc1CNc1ccc(SCC(=O)O)cc1 ?
Ans. zone 3

Qu. In plain terms, what class is COc1nc(-c2ccc(C(F)(F)F)cc2)ccc1CNc1ccc(SCC(=O)O)cc1 ?
Ans. zone 2

Qu. In plain terms, what class is CC#CC(CC(=O)O)c1ccc(OCc2cc(-c3ccccc3)cnc2OC)cc1 (stereo not shown) ?
Ans. zone 1

Qu. In plain terms, what class is COc1nc(-c2ccccc2)ccc1CNc1cccc(OCC(=O)O)c1 ?
Ans. zone 2

Qu. In plain terms, what class is COc1nc(-c2ccc(C(F)(F)F)cc2)ccc1COc1ccc(OCC(=O)O)cc1 ?
Ans. zone 3

Qu. In plain terms, what class is COc1nc(-c2ccccc2)ccc1CNc1ccc(C(CC(=O)O)c2ccccc2)cc1 (stereo not shown) ?
Ans. zone 1

Qu. In plain terms, what class is CC(C)(C)Oc1nc(-c2ccccc2)ccc1CNc1ccc(OCC(=O)O)cc1 ?
Ans. zone 1

Qu. In plain terms, what class is CC(C)(C)Oc1nc(-c2ccccc2)ccc1COc1ccc(OCC(=O)O)cc1 ?
Ans. zone 1

Attribution: patent US8461183B2
